Source of measurements: ChEMBL document CHEMBL4118202

- Species: Rattus norvegicus
- test.protocol: Selectivity ratio of compound effect for antagonism of alpha1B adrenergic receptor in Wistar rat spleen to compound effect for antagonism of alpha1D adrenergic receptor in Wistar rat thoracic aorta
Please go through the items and note down their Selectivity ratio.

Measured Selectivity ratio, "COc1cc2nc(N3CCN(C(C)=O)[C@H]4CCCC[C@H]43)nc(N)c2cc1OC" : 562

Sure, the documented Selectivity ratio for "CCCCCC(=O)N1CCN(c2nc(N)c3cc(OC)c(OC)cc3n2)[C@@H]2CCCC[C@@H]21" is 15

Selectivity ratio for "COc1cc2nc(N3CCN(C(=O)C(C)(C)C)[C@H]4CCCC[C@H]43)nc(N)c2cc1OC" is 26

* * *

- measured.target: Alpha-1D adrenergic receptor (Homo sapiens, UniProt P25100)
- Sequence (P25100 whole entry): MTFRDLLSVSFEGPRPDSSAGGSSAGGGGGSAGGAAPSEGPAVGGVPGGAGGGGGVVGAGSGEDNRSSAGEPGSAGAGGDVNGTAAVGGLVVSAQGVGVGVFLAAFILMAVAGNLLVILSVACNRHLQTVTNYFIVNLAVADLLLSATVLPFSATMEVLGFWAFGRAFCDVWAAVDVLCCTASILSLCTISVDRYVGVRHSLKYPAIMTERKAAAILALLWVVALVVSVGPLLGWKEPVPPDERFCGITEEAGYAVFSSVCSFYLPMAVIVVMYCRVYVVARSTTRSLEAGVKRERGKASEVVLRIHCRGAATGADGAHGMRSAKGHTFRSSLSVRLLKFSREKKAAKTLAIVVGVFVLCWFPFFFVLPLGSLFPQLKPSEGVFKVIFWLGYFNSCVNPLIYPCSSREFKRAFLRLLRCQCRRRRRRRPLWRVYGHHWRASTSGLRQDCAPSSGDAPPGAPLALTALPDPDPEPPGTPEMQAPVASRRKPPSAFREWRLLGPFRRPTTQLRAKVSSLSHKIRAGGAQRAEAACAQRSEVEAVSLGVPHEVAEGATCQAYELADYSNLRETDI
- test.protocol: Binding affinity to alpha1D adrenergic receptor (unknown origin)
property: Ki
Quote the value and follow it with the unit of measurement.

# value of Ki, Alpha-1D adrenergic receptor (Homo sapiens, UniProt P25100), item COc1cc2nc(N3CCN(C(=O)C4COc5ccccc5O4)[C@H]4CCCC[C@H]43)nc(N)c2cc1OC (single isomer, unassigned; (-)) = 3.89 nM

* * *

- measured.target: Alpha-1B adrenergic receptor (Homo sapiens, UniProt P35368)
- Sequence (P35368 whole entry): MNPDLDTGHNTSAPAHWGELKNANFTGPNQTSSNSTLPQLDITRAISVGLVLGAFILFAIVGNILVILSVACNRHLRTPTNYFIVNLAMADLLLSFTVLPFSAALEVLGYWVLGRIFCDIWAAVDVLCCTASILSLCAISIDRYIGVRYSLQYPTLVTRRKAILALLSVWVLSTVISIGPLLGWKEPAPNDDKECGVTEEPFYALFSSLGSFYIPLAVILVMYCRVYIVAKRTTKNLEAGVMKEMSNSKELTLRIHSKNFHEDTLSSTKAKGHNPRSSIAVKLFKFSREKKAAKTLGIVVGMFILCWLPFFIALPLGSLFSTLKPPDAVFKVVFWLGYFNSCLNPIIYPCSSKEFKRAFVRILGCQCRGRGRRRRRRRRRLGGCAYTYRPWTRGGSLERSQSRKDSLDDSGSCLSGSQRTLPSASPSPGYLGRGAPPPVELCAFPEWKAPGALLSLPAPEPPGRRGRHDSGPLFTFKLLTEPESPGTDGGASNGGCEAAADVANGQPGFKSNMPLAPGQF
- test.protocol: Displacement of [3H]prazosin from human alpha1B adrenergic receptor expressed in CHO cell membranes after 30 mins by rapid filtration method
property: Ki (nM)
Respond with the bare value in nM.

Lab note: "COc1cc2nc(N3CCN(C(C)=O)[C@H]4CCCC[C@H]43)nc(N)c2cc1OC" gave Ki of 9.12

The molecule identified as "COc1cc2nc(N3CCN(C(=O)OCc4ccccc4)[C@@H]4CCCC[C@@H]43)nc(N)c2cc1OC" registered its Ki at 0.191

The molecule identified as "COc1cc2nc(N3CCN(C(=O)c4ccco4)[C@@H]4CCCC[C@@H]43)nc(N)c2cc1OC" registered its Ki at 0.0708

Kindly note the recorded Ki for "CCCCCC(=O)N1CCN(c2nc(N)c3cc(OC)c(OC)cc3n2)[C@@H]2CCCC[C@@H]21" , which is 0.912

The recorded Ki for entry "COc1cc2nc(N3CCN(C(=O)C(C)(C)C)[C@H]4CCCC[C@H]43)nc(N)c2cc1OC" equals 0.776

Recorded Ki (molecule "COc1cc2nc(N3CCN(C(=O)COc4c(OC)cccc4C(C)C)[C@H]4CCCC[C@H]43)nc(N)c2cc1OC" ): 0.151

Kindly note the recorded Ki for "COc1cc2nc(N3CCN(C(C)=O)[C@@H]4CCCC[C@@H]43)nc(N)c2cc1OC" , which is 0.741

* * *

- measured.target: Alpha-1D adrenergic receptor (Rattus norvegicus, UniProt P23944)
- Sequence (P23944 whole entry): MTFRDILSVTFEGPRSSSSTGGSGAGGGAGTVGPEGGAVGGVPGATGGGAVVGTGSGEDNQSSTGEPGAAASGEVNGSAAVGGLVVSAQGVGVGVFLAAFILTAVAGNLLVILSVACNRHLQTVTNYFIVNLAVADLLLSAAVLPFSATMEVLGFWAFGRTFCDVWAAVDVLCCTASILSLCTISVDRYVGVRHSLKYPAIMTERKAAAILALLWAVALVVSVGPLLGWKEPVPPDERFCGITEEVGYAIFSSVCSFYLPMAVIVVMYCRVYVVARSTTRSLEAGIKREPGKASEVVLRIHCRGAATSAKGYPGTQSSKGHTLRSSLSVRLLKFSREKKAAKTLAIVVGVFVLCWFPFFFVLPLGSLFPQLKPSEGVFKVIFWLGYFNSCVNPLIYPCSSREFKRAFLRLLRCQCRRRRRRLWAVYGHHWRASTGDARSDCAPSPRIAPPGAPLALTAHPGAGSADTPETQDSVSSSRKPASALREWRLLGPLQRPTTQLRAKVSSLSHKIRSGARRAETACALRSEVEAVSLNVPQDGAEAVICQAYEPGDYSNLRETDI
- test.protocol: Antagonist activity at alpha1D adrenergic receptor in Wistar rat thoracic aorta assessed as inhibition of noradrenaline-induced contraction measured after 30 mins in presence of cocaine hydrochloride and beta-adrenoceptor blocker propranolol hydrochloride
- Format: functional
- test.settings: read-out: pA2 (converted)
property: log10(Kb) (log10 of the value in nM)
Please be aware that the numbers have been log10-transformed from Kb in nM.

Form: compound = "COc1cc2nc(N3CCN(C(=O)OCc4ccccc4)[C@H]4CCCC[C@H]43)nc(N)c2cc1OC" ; log10(Kb) = 2.38

Summary for this compound, "COc1cc2nc(N3CCN(C(=O)C(C)(C)C)[C@H]4CCCC[C@H]43)nc(N)c2cc1OC" : log10(Kb) is 2.15

Briefly, log10(Kb) measured for "COc1cc2nc(N3CCN(C(=O)OCc4ccccc4)[C@@H]4CCCC[C@@H]43)nc(N)c2cc1OC" : -0.28

Form field log10(Kb), entry "COc1cc2nc(N3CCN(C(=O)Cc4ccc5ccccc5c4)[C@H]4CCCC[C@H]43)nc(N)c2cc1OC" : 2.13

The compound listed as "CCCN(CCC)c1nc(N2CCN(C(=O)c3ccco3)[C@@H]3CCCC[C@@H]32)nc2cc(OC)c(OC)cc12" has a reported log10(Kb) of 1.77

Record "COc1cc2nc(N3CCN(C(=O)COc4c(OC)cccc4C(C)C)[C@H]4CCCC[C@H]43)nc(N)c2cc1OC" . Reported log10(Kb): 1.77

get_value(item= "COc1cc2nc(N3CCN(C(C)=O)[C@@H]4CCCC[C@@H]43)nc(N)c2cc1OC" , readout=log10(Kb)) returns 0.34

Record summary for "COc1cc2nc(N3CCN(C(C)=O)[C@H]4CCCC[C@H]43)nc(N)c2cc1OC" : reported log10(Kb) = 3.23

Entry under test: "CCCCCC(=O)N1CCN(c2nc(N)c3cc(OC)c(OC)cc3n2)[C@@H]2CCCC[C@@H]21" . Its log10(Kb) was 2.19

* * *

- measured.target: Alpha-1A adrenergic receptor (Rattus norvegicus, UniProt P43140)
- Sequence (P43140 whole entry): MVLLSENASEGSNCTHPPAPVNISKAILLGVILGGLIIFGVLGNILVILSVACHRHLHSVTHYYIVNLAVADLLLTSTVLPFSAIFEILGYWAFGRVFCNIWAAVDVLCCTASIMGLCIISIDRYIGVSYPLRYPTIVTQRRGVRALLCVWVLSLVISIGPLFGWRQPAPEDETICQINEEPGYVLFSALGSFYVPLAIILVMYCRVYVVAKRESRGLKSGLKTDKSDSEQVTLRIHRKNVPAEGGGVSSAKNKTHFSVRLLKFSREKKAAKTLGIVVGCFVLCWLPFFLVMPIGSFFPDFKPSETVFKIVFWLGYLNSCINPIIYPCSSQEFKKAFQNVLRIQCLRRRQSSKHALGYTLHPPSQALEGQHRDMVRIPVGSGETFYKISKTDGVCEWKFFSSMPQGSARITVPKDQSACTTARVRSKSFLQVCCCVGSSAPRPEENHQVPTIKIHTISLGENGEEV
- test.protocol: Antagonist activity at alpha1A adrenergic receptor in Wistar rat prostatic rat vas deferens assessed as inhibition of noradrenaline-induced contraction preincubated for 30 mins followed by noradrenaline addition measured after 45 mins in presence of cocaine hydrochloride
- Assay type: functional
- test.settings: read-out: pA2 (converted)
property: Kb

Test item COc1cc2nc(N3CCN(C(=O)C4COc5ccccc5O4)[C@H]4CCCC[C@H]43)nc(N)c2cc1OC (single isomer, unassigned; (-)) [CYCLODOXAZOSIN] ; Alpha-1A adrenergic receptor (Rattus norvegicus, UniProt P43140); reported Kb was 0.2 µM

Record "COc1cc2nc(N3CCN(C(=O)OCc4ccccc4)[C@H]4CCCC[C@H]43)nc(N)c2cc1OC" has Alpha-1A adrenergic receptor (Rattus norvegicus, UniProt P43140) Kb equal to 0.776 µM

Simply: "COc1cc2nc(N3CCN(C(C)=O)[C@@H]4CCCC[C@@H]43)nc(N)c2cc1OC" , Alpha-1A adrenergic receptor (Rattus norvegicus, UniProt P43140), Kb = 0.0447 µM

Reported Alpha-1A adrenergic receptor (Rattus norvegicus, UniProt P43140) Kb for item "COc1cc2nc(N3CCN(C(=O)OCc4ccccc4)[C@@H]4CCCC[C@@H]43)nc(N)c2cc1OC" was 0.0162 µM

I looked up "COc1cc2nc(N3CCN(C(C)=O)[C@H]4CCCC[C@H]43)nc(N)c2cc1OC" and its Kb for Alpha-1A adrenergic receptor (Rattus norvegicus, UniProt P43140) was 3.02 µM

Query "COc1cc2nc(N3CCN(C(=O)COc4c(OC)cccc4C(C)C)[C@H]4CCCC[C@H]43)nc(N)c2cc1OC" on Alpha-1A adrenergic receptor (Rattus norvegicus, UniProt P43140); Kb returned: 0.151 µM

Query "COc1cc2nc(N3CCN(C(=O)c4ccco4)[C@@H]4CCCC[C@@H]43)nc(N)c2cc1OC" on Alpha-1A adrenergic receptor (Rattus norvegicus, UniProt P43140); Kb returned: 0.000589 µM

* * *

- measured.target: Alpha-1B adrenergic receptor (Rattus norvegicus)
- test.protocol: Antagonist activity at alpha1B adrenergic receptor in Wistar rat spleen assessed as inhibition of phenylephrine-induced contraction incubated for 30 mins in presence of beta-adrenoceptor blocker propranolol hydrochloride
- Format: functional
pKb class ranges: low value (below 8), medium value (8 to below 9), high value (9 or more)

Category lookup for the compound COc1cc2nc(N3CCN(C(=O)C4COc5ccccc5O4)[C@H]4CCCC[C@H]43)nc(N)c2cc1OC (single isomer, unassigned; (-)) [CYCLODOXAZOSIN]
medium value

Which class holds "COc1cc2nc(N3CCN(C(=O)c4ccco4)[C@@H]4CCCC[C@@H]43)nc(N)c2cc1OC" ?
high value

Dear colleague, I would appreciate it if you could identify the bin for "COc1cc2nc(N3CCN(C(=O)C(C)(C)C)[C@H]4CCCC[C@H]43)nc(N)c2cc1OC" and reply at your convenience.
medium value

For the record "CCCN(CCC)c1nc(N2CCN(C(=O)c3ccco3)[C@@H]3CCCC[C@@H]32)nc2cc(OC)c(OC)cc12" , report the class its pKb corresponds to.
low value
